B1: Formin-binding protein 4, residues 593 to 636; numbered along this chain, Q8N3X1 (parent)
chain: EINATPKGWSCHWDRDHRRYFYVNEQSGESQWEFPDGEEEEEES

Variants of: B1
method: abundance fitness (aPCA) (normalised: wild type 0, dead -1); higher = more abundant; growth selection in yeast, the domain comes from the species named
condition.parameters: Homo sapiens
The variants listed here are annotated with their abundance fitness.
Number, no unit, nothing else.

{"columns": ["mutation.annotation", "abundance fitness"],
 "data": [
  ["E1A", -0.14],
  ["D16T", -0.064],
  ["Q31T", -0.115],
  ["H17F", -0.025],
  ["P35R", -0.661]
]}

# context switch: different variant, same abundance fitness
**Q:** Fill in: abundance fitness of `S10P` is ___
**A:** -0.91
